// values below are reported IC50
experimentalDetails: Cytotoxicity against human HCT116 cells assessed as reduction in cell viability after 48 hrs by MTT assay
Format: functional, cell-based
measurementContext: HCT-116, 48 h
Just the number please, in nM, no unit attached.

Examples from the recorded data:
compoundstructure=O=Cc1ccc(-c2cc(=O)n3ccccc3n2)cc1 valueobserved=3500
compoundstructure=O=c1cc(-c2ccc(Cl)cc2)nc2ccccn12 valueobserved=2500
compoundstructure=O=c1c(-c2ccccc2)cnc2c(OCc3ccccc3)cccn12 valueobserved=3000

I would be grateful if you could share the reported IC50 for Cc1ccc(-c2cnc3ccccn3c2=O)cc1 .
2500

I would be grateful if you could share the reported IC50 for O=c1c(-c2cc(O)cc(O)c2)cnc2ccccn12 .
3000

I would be grateful if you could share the reported IC50 for COc1cc(-c2cnc3ccccn3c2=O)cc(OC)c1OC .
3200

* * *

// values below are reported CC50 at 48 h
experimentalDetails: Cytotoxicity against African green monkey Vero cells assessed as reduction in cell viability after 48 hrs by MTT assay
Type: toxicity, cell-based
measurementContext: chlorocebus sabaeus, Vero cells; read-out: LC50
Just the number please, in µM, no unit attached.

compoundstructure=COc1cc(-c2cc(=O)n3ccccc3n2)cc(OC)c1OC valueobserved=46
compoundstructure=COc1ccc(-c2cc(=O)c3ccccc3o2)cc1 valueobserved=45
compoundstructure=COc1ccc(-c2coc3ccccc3c2=O)cc1 valueobserved=52
compoundstructure=Cc1ccc(-c2coc3ccccc3c2=O)cc1 valueobserved=48
compoundstructure=COc1ccc(-c2cnc3ccccn3c2=O)cc1 valueobserved=38

Attention now turns to another entry.
I would be grateful if you could share the reported CC50 at 48 h for O=c1c(-c2cccc3ccccc23)cnc2ccccn12 .
60

* * *

experimentalDetails: Cytotoxicity against African green monkey Vero cells assessed as reduction in cell viability after 48 hrs by MTT assay
Assay type: toxicity, cell-based
measurementContext: chlorocebus sabaeus, Vero cells; read-out: LC50
// values below are reported CC50 at 48 h
Just the number please, in µM, no unit attached.

Examples from the recorded data:
compound=O=c1cc(-c2ccc(Cl)cc2)nc2ccccn12 unitstext=µM valueobserved=47.5
compound=O=c1cc(-c2ccc3c(c2)OCO3)nc2ccccn12 unitstext=µM valueobserved=52
compound=O=c1c(-c2ccc(O)c(O)c2)cnc2ccccn12 unitstext=µM valueobserved=38

I would be grateful if you could share the reported CC50 at 48 h for O=c1c(-c2cccc(O)c2)cnc2ccccn12 .
52

I would be grateful if you could share the reported CC50 at 48 h for O=c1c(-c2ccccc2)cnc2c(OCc3ccccc3)cccn12 .
60

I would be grateful if you could share the reported CC50 at 48 h for COc1cc(-c2coc3ccccc3c2=O)cc(OC)c1OC .
50

I would be grateful if you could share the reported CC50 at 48 h for COc1cc([C@@H]2c3cc4c(cc3[C@@H](O[C@@H]3O[C@@H]5CO[C@@H](C)O[C@H]5[C@H](O)[C@H]3O)[C@H]3COC(=O)[C@H]23)OCO4)cc(OC)c1O [ETOPOSIDE] .
55

I would be grateful if you could share the reported CC50 at 48 h for COc1cc(-c2cnc3ccccn3c2=O)cc(OC)c1OC .
40

I would be grateful if you could share the reported CC50 at 48 h for O=c1c(-c2cc(O)cc(O)c2)cnc2ccccn12 .
50

I would be grateful if you could share the reported CC50 at 48 h for COc1ccc(-c2cc(=O)n3ccccc3n2)cc1OC .
50

I would be grateful if you could share the reported CC50 at 48 h for COc1cc(-c2cc(=O)c3ccccc3o2)cc(OC)c1OC .
52

I would be grateful if you could share the reported CC50 at 48 h for COc1ccc(-c2cc(=O)n3ccccc3n2)cc1 .
60
